Examples of molecules with documented Inh (PKA) follow.
System: PRKACA-PRKAR2A interaction (SmBiT-PRKACA / LgBiT-PRKAR2A), protein kinase A
Set-up: NanoLuc complementation counter-screen in cell extract, PRKACA with PRKAR2A, loss of luminescence, detects NanoLuc interference
Details: counter-screen for NanoLuc interference; 0.5 h, 20 µM; inhibitor
Where a name gives a salt, the structure may show the parent alone.
Provide only the numeric value, understood in %.

Worked examples follow.
molecule=CCCCCCCc1ccc(CCc2cccc(O)c2C(=O)O)cc1 quantitative_readout=11.49
molecule="CN1[C@@H]2CC(O)C[C@H]1[C@@H]1O[C@@H]12 (some centres unmarked)" quantitative_readout=1.123
molecule=O=[N+]([O-])c1cccc2cn[nH]c12 quantitative_readout=2.182
molecule=CCOc1ccc(Cc2cc([C@@H]3O[C@H](CO)[C@@H](O)[C@H](O)[C@H]3O)ccc2Cl)cc1 quantitative_readout=0.9919
molecule="CCC[S+]([O-])c1ccc2[nH]c(NC(=O)OC)nc2c1 (centres unmarked) [UM0142387:01, Albendazole Oxide]" quantitative_readout=2.774
molecule="CCCC(C)NC(=O)c1ccc(Cl)c(Cl)c1 (centres unmarked)" quantitative_readout=15.79
molecule=Nc1ccc(C(=O)O)cc1 quantitative_readout=-1.147
molecule=COC(=O)N1CCN(Cc2cccc(NC(=O)Nc3ccc(C)nc3)c2F)CC1 quantitative_readout=3.022

Query: Field: Inh (PKA) (PRKACA-PRKAR2A interaction (SmBiT-PRKACA / LgBiT-PRKAR2A), protein kinase A). Entry: COc1cc2c(Nc3ccc(NC(=O)c4ccccc4)cc3)ncnc2cc1OCCCN1CCOCC1
Reply: 1.101

Query: Field: Inh (PKA) (PRKACA-PRKAR2A interaction (SmBiT-PRKACA / LgBiT-PRKAR2A), protein kinase A). Entry: CN1CCN(c2ccc(C(=O)Nc3n[nH]c4ccc(Cc5cc(F)cc(F)c5)cc34)c(NC3CCOCC3)c2)CC1
Reply: 20.65

Query: Field: Inh (PKA) (PRKACA-PRKAR2A interaction (SmBiT-PRKACA / LgBiT-PRKAR2A), protein kinase A). Entry: CCCCN1CCCC[C@H]1C(=O)Nc1c(C)cccc1C [UM0142248:02, Levobupivacaine HCl]
Reply: 0.7845

---

Biological target: MeCP2-TBL1 interaction (MeCP2-SmBiT / TBL1-LgBiT) (Mus musculus)
Construct: expressed in transfected cells; crude lysate used as a cell-free assay
Sequence (Q9QXE7 166-527): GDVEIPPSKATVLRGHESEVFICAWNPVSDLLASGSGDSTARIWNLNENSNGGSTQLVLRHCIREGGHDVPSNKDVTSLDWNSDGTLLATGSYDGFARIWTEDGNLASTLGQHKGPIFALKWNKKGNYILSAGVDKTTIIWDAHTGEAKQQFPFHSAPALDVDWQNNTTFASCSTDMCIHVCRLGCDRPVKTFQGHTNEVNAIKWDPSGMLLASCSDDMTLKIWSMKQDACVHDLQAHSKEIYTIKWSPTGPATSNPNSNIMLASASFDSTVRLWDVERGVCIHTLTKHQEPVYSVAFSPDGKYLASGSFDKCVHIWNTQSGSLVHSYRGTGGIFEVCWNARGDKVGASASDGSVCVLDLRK
Assay: MeCP2-TBL1 NanoLuc luciferase complementation assay (cell-free, extracts of transfected HEK293 cells);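 note: each compound tested at 20 µM final concentration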
Type: binding, human
Settings: primary screen of the Asinex library, sheet "Sargen output Asinex library", one well per compound, Batch Ref. 1
OBSERVATION_TYPE: Inhibition percent (%)
Provide only the numeric value, understood in %.

Worked examples follow.
molecule=C[C@]12C[C@@H](Cc3ccccc3)N(C(=O)CCN3C(=O)CCCC3=O)[C@H]1CCCC(=O)N2 observation_type="Inhibition percent" quantitative_readout=1.89
molecule=Cc1cc(O[C@@H]2C[C@@H](NC(=O)CCCC(=O)O)[C@H](N3CCc4ccccc4C3)[C@H]2O)cc(C(C)C)c1 observation_type="Inhibition percent" quantitative_readout=-0.70
molecule="Cn1c(=O)n(C)c2cc(CCC(=O)N3CCCCC3CCNC(=O)c3ccccc3)ccc21 (centres unmarked)" observation_type="Inhibition percent" quantitative_readout=-0.76
molecule=COc1cccc(CC(=O)N2CCC(c3nc(N(C)C)ncc3-c3ccccc3F)CC2)c1 observation_type="Inhibition percent" quantitative_readout=20.50

Okay, now this molecule:
Query: Field: Inhibition percent (MeCP2-TBL1 interaction (MeCP2-SmBiT / TBL1-LgBiT) (Mus musculus)). Entry: NC(=O)C1(Cc2cc(C3CCCCC3)no2)CCN(C(=O)CN2CCCCCC2=O)C1 (centres unmarked)
Reply: -2.18
